Hey, just so you know, these numbers are from paper PMC12467433.

assay: MTT cytotoxicity assay, HEK 293; format: cell-based; conditions: human, HEK 293 cells, HEK 293, MTT, triplicate, read-out: Toxicity IC50
I'd appreciate it if you could supply IC50 at 48 h values for the items below.

Query: Param item = CN1CCN(c2ccc(C=NNC(=O)c3ccncc3)cc2)CC1 ; retrieve measured IC50 at 48 h.
Response: > 100 µM

Query: Param item = O=C(NN=Cc1ccc(N2CCN(C3CCCCC3)CC2)cc1)c1ccncc1 ; retrieve measured IC50 at 48 h.
Response: > 100 µM

Query: Param item = NC(=O)C1CCN(c2ccc(C=NNC(=O)c3ccncc3)cc2)CC1 ; retrieve measured IC50 at 48 h.
Response: > 100 µM

Query: Param item = O=C(NN=Cc1ccc(N2CCN(c3ncccn3)CC2)cc1)c1ccncc1 ; retrieve measured IC50 at 48 h.
Response: > 100 µM

Query: Param item = O=C(NN=Cc1ccc(N2CCN(c3ccccn3)CC2)cc1)c1ccncc1 ; retrieve measured IC50 at 48 h.
Response: > 100 µM

Query: Param item = CCOC(=O)C1CCN(c2ccc(C=NNC(=O)c3ccncc3)cc2)CC1 ; retrieve measured IC50 at 48 h.
Response: > 100 µM
